- assayed system: KLC1-N301A (Homo sapiens, UniProt Q07866, N301A)
- Construct: KLC1-TPR (residues 228–495, genbank: NP_005543); made in house; host or cells: E. coli BL21(DE3)-CodonPlus-RIL
- Sequence (Q07866 228-495 N301A): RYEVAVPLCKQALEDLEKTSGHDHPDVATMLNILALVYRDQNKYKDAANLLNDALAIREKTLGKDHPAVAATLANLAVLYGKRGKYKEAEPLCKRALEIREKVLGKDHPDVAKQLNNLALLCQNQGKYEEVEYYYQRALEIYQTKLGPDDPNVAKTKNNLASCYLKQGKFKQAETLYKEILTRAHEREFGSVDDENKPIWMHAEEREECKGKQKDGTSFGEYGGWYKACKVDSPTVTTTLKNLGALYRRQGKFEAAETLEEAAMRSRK
- experiment notes: ITC binding of ALC1 peptide to KLC1-N301A mutant
- condition set: 25°C, pH 6.5, 500 mM NaCl, one-site model, ± SD from fit, Table 3
value kind: pKd
Scale: pKd equals -log10([C]), with [C] in mol/L.

Q: Please respond with reported pKd (system KLC1-N301A (Homo sapiens, UniProt Q07866, N301A)) for Ac-EMDWDDSALT-OH [ALC1 peptide, Ac-EMDWDDSALT-COOH] .
Ans: 3.75

###

- assayed system: KLC1-TPR (Homo sapiens, UniProt Q07866)
- Construct: KLC1-TPR (residues 228–495, genbank: NP_005543); made in house; host or cells: E. coli BL21(DE3)-CodonPlus-RIL
- Sequence (Q07866 228-495): as the sequence (Q07866 228-495 N301A) above, with A74N counted along it
- experiment notes: ITC binding of JIP1 or ALC1 peptide to KLC1-TPR
- condition set: 25°C, 20 mM Bis-Tris pH 6.5, 500 mM NaCl, 0.5 mM TCEP, Kd determined from Ka of one-site fit, ± SD from fit, Table 3
value kind: pKd
Scale: pKd equals -log10([C]), with [C] in mol/L.

Q: Please respond with reported pKd (system KLC1-TPR (Homo sapiens, UniProt Q07866)) for Ac-EMDWDDSALT-OH [ALC1 peptide, Ac-EMDWDDSALT-COOH] .
Ans: 4.30

###

- assayed system: KLC1-N343S (Homo sapiens, UniProt Q07866, N343S)
- Construct: KLC1-TPR (residues 228–495, genbank: NP_005543); made in house; host or cells: E. coli BL21(DE3)-CodonPlus-RIL
- Sequence (Q07866 228-495 N343S): as the sequence (Q07866 228-495 N301A) above, with A74N, N116S counted along it
- experiment notes: ITC binding of JIP1 or ALC1 peptide to KLC1-N343S mutant
- condition set: 25°C, pH 6.5, 500 mM NaCl, one-site model, ± SD from fit, N.B = no binding was observed, Table 3, read-out: Kd
value kind: pKd
Scale: pKd equals -log10([C]), with [C] in mol/L.

Q: Tell me pKd reported for Ac-EMDWDDSALT-OH [ALC1 peptide, Ac-EMDWDDSALT-COOH]
Ans: 4.35
